Target: FRMPD2_2, Q68DX3
Sequence (Q68DX3 944-1038): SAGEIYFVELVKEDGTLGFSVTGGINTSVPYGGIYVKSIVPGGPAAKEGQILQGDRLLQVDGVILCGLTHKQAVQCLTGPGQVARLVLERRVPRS
Assay: holdup assay
Set-up: key: below the threshold = too weak to quantify, mostly under pKd 3.1 to 4
Conditions: plain residues with an end cap or a label only (N-terminal biotin on a linker: ahx)
test readout: pKd
Respond using a number only.

[[record]]
binder = "YNSFLSVTTV [PDZRN3, Q9UPQ7]"
test_result = 3.73


Ask: What measured pKd goes with KDECVIATEV [DLL1, O00548] ?
Result: 3.99

Ask: What measured pKd goes with ADENEQVSAV [RAPGEF6, Q8TEU7] ?
Result: 4.85

Ask: What measured pKd goes with AKPQPVDSWV [ARVCF, O00192] ?
Result: 4.25
